- Test system: RPMI-8226 leukemia
- method-description: NCI tumour cell line growth inhibition, 48 h
recorded-metric: TGI (µM)
Respond with the bare value in µM.

molecule	TGI, µM
Cc1nc2c(o1)C(=O)c1ccccc1C2=Nc1ccc(N2CCOCC2)cc1	25.5

Q: Retrieve TGI on RPMI-8226 leukemia; query C[C@]12CC[C@H](O)CC1=CC[C@@H]1[C@@H]2CC[C@]2(C)C(=N/O)/C(=C/c3ccc([N+](=O)[O-])cc3)C[C@@H]12
A: 50.6

Q: Retrieve TGI on RPMI-8226 leukemia; query C[C@H]1[C@H]2[C@H]3CC[C@@H]4[C@@]5(C)C/C(=C/c6cccnc6)C(=O)C(C)(C)[C@@H]5CC[C@@]4(C)[C@]3(C)CC[C@]23CO[C@]1(C)[C@@H](C(=O)/C=C\c1cccnc1)C3
A: 2.26

Q: Retrieve TGI on RPMI-8226 leukemia; query CCN(CC)CCCC(C)N=c1cc(Nc2cc(=NC(C)CCCN(CC)CC)c3cc(OC)ccc3o2)oc2ccc(OC)cc12 (centres undefined)
A: 3.41

###

List of GI50 values.
- System: A549 NSCLC
- method-description: NCI tumour cell line growth inhibition, 48 h

# example entries with known answers
molecule	GI50
Cc1ncsc1-c1ccc(CNC(=O)[C@@H]2C[C@@H](O)CN2C(=O)[C@@H](NC(=O)C2(C#N)CC2)C(C)(C)C)cc1	> 100 µM
CCN(CC)CCCC(C)N=c1cc(Nc2cc(=NC(C)CCCN(CC)CC)c3cc(OC)ccc3o2)oc2ccc(OC)cc12 (stereo unspecified)	0.849 µM
O=C(NCc1ccco1)c1ccc(NC2=C(Cl)C(=O)N(Cc3ccccc3)C2=O)cc1	37.2 µM
C=C(C)[C@@H]1CC[C@]2(CO)CC[C@]3(C)[C@H](CC[C@@H]4[C@@]5(C)CCC(NCCc6ccc(O)cc6)C(C)(C)[C@@H]5CC[C@]43C)[C@@H]12 (stereo partly specified)	1.48 µM
O=C(NN=C1CCCCC1)c1[nH]c2ccc(F)cc2c1-c1ccccc1	42.9 µM
C/C(=C(\c1ccc(OCCN2CCCCCC2)cc1)c1ccc(OC(=O)Cc2ccccc2)cc1)c1ccc(Cl)cc1	2.7 µM
C[n+]1ccc(-c2c3nc(c(-c4cc[n+](C)cc4)c4ccc([n-]4)c(-c4cc[n+](C)cc4)c4nc(c(-c5cc[n+](C)cc5)c5ccc2[n-]5)C=C4)C=C3)cc1.[I-].[Zn+2]	22.3 µM
C=CN(C)S(C)(=O)=O	> 100 µM
O=C(CCC(C(=O)c1ccccc1)c1ccccc1)c1ccccc1 (stereo unspecified)	7.29 µM
Nc1c(C(=O)c2ccc(CCCN3CCOCC3)cc2)cnn1-c1ccc(F)cc1	> 25 µM

Q: Report GI50 for CC/C(=C(/c1ccc(O)cc1)c1ccc(OCCN2CCCCC2)cc1)c1ccc(OC)cc1
A: 4.11 µM

Q: Report GI50 for CCCCCCCCCCCCOC1C(C(CC(=O)N2CCN(c3cccc(C(F)(F)F)c3)CC2)NS(=O)(=O)c2cc(Cl)cc(Cl)c2)OC2OC(C)(C)OC21 (stereo unspecified)
A: > 100 µM

###

- Tested on: NCI/ADR-RES ovarian
- method-description: NCI tumour cell line growth inhibition, 48 h
List of GI50 values.

# example entries with known answers
> print(dat)
                            chemical.smiles  recorded.metric  obs.value
1   COc1cc(OC)c(NC(=O)c2cc3ccccc3cc2O)cc1Cl             GI50    2.63 µM
2  CCCC(=O)O.CCCC(=O)O.CCCC(=O)O.CCCC(=O)O.[Rh].[Rh]             GI50   0.185 µM
3  CCS(=O)(=O)Nc1cccc(Nc2c3cccc(C)c3nc3c(C)cccc23)c1OC             GI50    3.23 µM
4  CCCCN(CCCC)CCCn1c(=O)c2c3ccccc3n(C)c2n2nnc(-c3ccccc3)c12             GI50    14.3 µM

Q: Report GI50 for COc1cccc2c1c(C1=C(c3cn(C)c4ccccc34)C(=O)NC1=O)cn2C
A: > 25 µM
